target_system: full-length human PRMT1 isoform 1 (GST-tagged) (Homo sapiens, UniProt Q99873)
Construct: GST-tagged PRMT1 was eluted with 50 mM Tris, 2 mM glutathione, pH 7.8, dialysed in buffer A and concentrated
Sequence (Q99873 with tags, fused parts or gaps): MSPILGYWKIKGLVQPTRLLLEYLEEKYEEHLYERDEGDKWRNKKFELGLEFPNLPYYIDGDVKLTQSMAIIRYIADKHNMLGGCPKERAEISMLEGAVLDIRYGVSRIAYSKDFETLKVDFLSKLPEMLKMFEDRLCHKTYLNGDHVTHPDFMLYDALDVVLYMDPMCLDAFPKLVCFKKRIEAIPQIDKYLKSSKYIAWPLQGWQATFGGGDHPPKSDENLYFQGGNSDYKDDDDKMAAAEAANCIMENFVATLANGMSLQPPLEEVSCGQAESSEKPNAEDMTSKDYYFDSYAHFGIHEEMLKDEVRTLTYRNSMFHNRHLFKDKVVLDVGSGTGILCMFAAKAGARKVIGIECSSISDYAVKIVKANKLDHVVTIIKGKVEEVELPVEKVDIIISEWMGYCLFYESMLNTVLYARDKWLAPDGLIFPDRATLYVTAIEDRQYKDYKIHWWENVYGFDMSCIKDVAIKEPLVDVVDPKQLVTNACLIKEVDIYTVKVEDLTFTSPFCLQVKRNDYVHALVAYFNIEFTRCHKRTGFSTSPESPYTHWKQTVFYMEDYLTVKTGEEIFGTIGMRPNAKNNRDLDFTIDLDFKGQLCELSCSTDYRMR
assay_name: PRMT1 biochemical assay (3H-SAM Flashplate, histone H4 36-50 peptide)
test_settings: 0.5 nM PRMT1, 30 min preincubation, 20 nM peptide
Excerpt: S-adenosylmethionine (SAM), S-adenosylhomocysteine (SAH), bicine, Tween20, dimethylsulfoxide (DMSO), bovine skin gelatin (BSG), and Tris(2-carboxyethyl)phosphine hydrochloride solution (TCEP) were purchased from Sigma-Aldrich at the highest level of purity possible. ^3H-SAM was purchase from American Radiolabeled Chemicals with a specific activity of 80 Ci/mmol. 384-well streptavidin Flashplates were purchased from PerkinElmer. […]
observable: IC50 (µM)

In the examples that follow, each entry is paired with its recorded IC50.
## Task Need IC50, item CNCCN(C)Cc1ccnn1[C@H]1CC[C@]2(CC1)CC(C)(C)CO2 [compound 50]
## Result 0.0209

## Task Now try CNCCN(C)Cc1n[nH]cc1[C@H]1CC[C@]2(CC1)CC(C)(C)CO2 [compound 116] .
## Result 0.0229

## Task Now try CNCCN(C)Cc1nocc1[C@H]1CC[C@@]2(CC1)CC(C)(C)CO2 [compound 117] .
## Result 0.0513

## Task Now try CCC1(CC)C[C@]2(CC[C@H](c3n[nH]cc3CN(C)CCNC)CC2)NC1=O [compound 47] .
## Result 0.0152

## Task Now try CN(C)CCN(C)Cc1c[nH]nc1[C@H]1CC[C@@]2(CC1)CC(C)(C)CO2 [compound 42] .
## Result 0.0315

## Task Now try CCOCC1(COCC)CCC(c2n[nH]cc2CN(C)CCN(C)C)CC1 [compound 121] .
## Result 0.038

(A) CNCCN(C)Cc1c[nH]nc1[C@H]1CC[C@@]2(CCCOC2)CC1 [compound 5]
(B) CC[C@H]1CC[C@@H](c2n[nH]cc2CN(C)CCNC)CC1 [compound 1]
## Task Would you let me know which has the greater IC50 value, A or B ? Refer to your chosen entry by its label in the reply.
## Result A

(P) CNCCN(C)Cc1nccn1[C@H]1CC[C@@]2(CC1)CC(C)(C)CO2 [compound 69]
(Q) CCOCC1(COCC)CCC(c2nn(C)cc2CN(C)CCN)CC1 [compound 124]
## Task Would you let me know which has the greater IC50 value, P or Q ? Refer to your chosen entry by its label in the reply.
## Result P
